- TESTED_SYSTEM: S1PR2 (Homo sapiens)
- Construct: expressed in transfected cells
- Sequence (O95136 whole entry): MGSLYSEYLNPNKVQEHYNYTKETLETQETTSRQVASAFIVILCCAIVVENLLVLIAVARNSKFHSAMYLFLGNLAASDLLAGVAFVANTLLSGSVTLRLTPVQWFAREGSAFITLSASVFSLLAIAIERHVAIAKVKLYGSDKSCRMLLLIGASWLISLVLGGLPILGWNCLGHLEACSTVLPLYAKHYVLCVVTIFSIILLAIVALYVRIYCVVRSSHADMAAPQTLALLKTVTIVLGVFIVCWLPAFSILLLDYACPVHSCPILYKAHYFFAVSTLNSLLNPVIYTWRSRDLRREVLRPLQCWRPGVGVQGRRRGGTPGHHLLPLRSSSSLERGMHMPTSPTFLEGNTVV
- EXPERIMENTAL_PROTOCOL: S1PR2 binding assay (competition with radioactively labeled S1P, SpA)
- CONDITION_SET: membranes from stable cell line over expressing S1PR2, SpA beads; read-out: S1P2 EC50 (nM), S1PR2 binding EC50
READOUT_KIND: log10(EC50) (log10 of the value in nM)
Base-10 log of EC50, unit nM.

Take a look at these entries with their results.
{"COMPOUND": "CS(=O)(=O)NC(=O)Cn1nc(Cc2nc3cc(OCC4CC4)c(Cl)cc3[nH]2)c2ccccc2c1=O [Compound 242]", "log10(EC50)": 2.48}
{"COMPOUND": "CC(=O)N1CCCC1Cn1nc(Cc2nc3cc(Cl)c(OC(F)(F)F)cc3[nH]2)c2ccccc2c1=O (stereo not drawn) [compound 14]", "log10(EC50)": 3.69}
{"COMPOUND": "O=C(O)Cc1nn(Cc2nc3cc(OCC4CC4)c(Br)cc3[nH]2)c2ccccc2c1=O [Compound 109]", "log10(EC50)": 0.58}

# value of log10(EC50), S1PR2 (Homo sapiens), item N#Cc1cc2nc(Cc3nn(C4CN(CC(=O)O)C4)c(=O)c4ccccc34)cn2cc1OCC1CC1 [Compound 73] = 2.68

# value of log10(EC50), S1PR2 (Homo sapiens), item O=c1c2ccccc2c(Cc2nc3cc(Cl)c(OCC(F)F)cc3[nH]2)nn1C1CC1 [Compound 32] = 2.39

# value of log10(EC50), S1PR2 (Homo sapiens), item N#Cc1cc2[nH]c(Cc3nn(CC(=O)NC(C#N)C4CC4)c(=O)c4ccccc34)nc2cc1OCC(F)F (stereo not drawn) [Compound 226] = 2.74

# value of log10(EC50), S1PR2 (Homo sapiens), item CCOc1cc2nc(Cc3nn(CC(=O)O)c(=O)c4ccccc34)[nH]c2cc1C(F)(F)F [Compound 127] = 2.68

# value of log10(EC50), S1PR2 (Homo sapiens), item O=C(O)Cn1nc(Cc2nc3cc(Cl)c(OCC4CC4)c(F)c3[nH]2)c2ccccc2c1=O [Compound 116] = 2.26

# value of log10(EC50), S1PR2 (Homo sapiens), item CC(C(=O)NS(C)(=O)=O)c1nn(Cc2cn3cc(OCC4CC4)c(Cl)cc3n2)c2ccccc2c1=O (stereo not drawn) [compound 15] = 2.58

# value of log10(EC50), S1PR2 (Homo sapiens), item O=C(Cn1nc(Cn2cc3cc(OCC4CC4)c(Cl)cc3n2)c2ccccc2c1=O)N[C@H]1CCC[C@@H]1O [Compound 143] = 1.18

# value of log10(EC50), S1PR2 (Homo sapiens), item N#Cc1cc2nc(Cc3nn(CC(=O)O)c(=O)c4ccccc34)cn2cc1OCC1CC1 [Compound 79] = 2.34

# value of log10(EC50), S1PR2 (Homo sapiens), item CC(C)(C)CNC(=O)Cn1nc(Cc2nc3cc(OCC(F)F)c(C#N)cc3[nH]2)c2ccccc2c1=O [Compound 202] = 1.68

# value of log10(EC50), S1PR2 (Homo sapiens), item COC1CCN(C(=O)Cn2nc(Cc3nc4cc(C#N)c(OCC(F)F)cc4[nH]3)c3ccccc3c2=O)C1 (stereo not drawn) [Compound 186] = 2.15

# value of log10(EC50), S1PR2 (Homo sapiens), item O=c1c2ccccc2c(Cc2nc3cc(Cl)c(OC(F)(F)F)cc3[nH]2)nn1C1CCNC1 (stereo not drawn) [Compound 59] = 1.62

# value of log10(EC50), S1PR2 (Homo sapiens), item CS(=O)(=O)NC(=O)Cn1nc(Cc2nc3cc(OCC(F)F)c(Cl)cc3[nH]2)c2cc(C#N)ccc2c1=O [Compound 245] = 2.78

----------
- TESTED_SYSTEM: human GPCR sphingosine 1-phosphate receptor 2 (Homo sapiens, UniProt O95136)
- Construct: host or cells: CHO
- Sequence (O95136 whole entry): as above
- EXPERIMENTAL_PROTOCOL: S1PR2 antagonist Ca2+ flux assay
- Assay type: cell-based
- CONDITION_SET: antagonist mode, CHO-S1PR2 cells, S1P at EC80, Ca2+ fluorescence; read-out: S1P2 EC50 (nM), S1P2 antagonist EC50
READOUT_KIND: EC50 (nM)
Write the answer as a number in nM, unit excluded.

Take a look at these entries with their results.
{"COMPOUND": "O=C(O)Cn1nc(Cc2nc3cc(Cl)c(OC(F)(F)F)cc3[nH]2)c2c(c1=O)CCCC2", "READOUT_KIND": "EC50", "OBSERVED_MEASUREMENT": 23.7}
{"COMPOUND": "CC1(O)CCN(C(=O)Cn2nc(Cc3nc4cc(OCC(F)F)c(C#N)cc4[nH]3)c3ccccc3c2=O)C1 (stereo not shown)", "READOUT_KIND": "EC50", "OBSERVED_MEASUREMENT": 44.8}
{"COMPOUND": "N#Cc1cc2[nH]c(Cc3nn(CC4CCCN4CC(=O)O)c(=O)c4ccccc34)nc2cc1OCC(F)F (stereo not shown)", "READOUT_KIND": "EC50", "OBSERVED_MEASUREMENT": 836}

Lab note: N#Cc1cc2[nH]c(Cc3nn(C4CNC4)c(=O)c4ccccc34)nc2cc1OCC(F)F gave EC50 of 547

Lab note: CS(=O)(=O)C1CCN(C(=O)Cn2nc(Cc3nc4cc(OCC(F)F)c(C#N)cc4[nH]3)c3ccccc3c2=O)C1 (stereo not shown) gave EC50 of 45.8

Lab note: N#Cc1cc2[nH]c(Cc3nn(CC(=O)N4CCOCC4)c(=O)c4ccccc34)nc2cc1OCC1CC1 gave EC50 of 3.98

Lab note: O=C(O)Cn1nc(Cc2nc3nc(OCC4CC4)c(Cl)cc3[nH]2)c2ccccc2c1=O gave EC50 of 24.3

Lab note: O=C(Cn1nc(Cc2nc3cc(Cl)c(OCC(F)F)cc3[nH]2)c2ccccc2c1=O)N1CCOCC1 gave EC50 of 13.6

Lab note: N#Cc1cc2[nH]c(Cc3nn(CC(=O)N4CCC5(C4)CC5(F)F)c(=O)c4ccccc34)nc2cc1OCC(F)F (stereo not shown) gave EC50 of 18.2

Lab note: O=c1c2ccccc2c(Cc2nc3cc(Cl)c(OC(F)(F)F)cc3[nH]2)nn1CC1CCCN1 (stereo not shown) gave EC50 of 1460

Lab note: O=c1c2ccccc2c(Cn2cc3cc(OCC4CC4)c(Cl)cc3n2)nn1C1CNC1 gave EC50 of 81.6

----------
- TESTED_SYSTEM: S1PR2 (Homo sapiens)
- Construct: expressed in transfected cells
- EXPERIMENTAL_PROTOCOL: S1PR2 binding assay (competition with radioactively labeled S1P, SpA)
- CONDITION_SET: membranes from stable cell line over expressing S1PR2, SpA beads; read-out: S1P2 EC50 (nM), S1PR2 binding EC50
Listing of entries alongside the reported EC50.
Write the answer as a number in nM, unit excluded.

Take a look at these entries with their results.
{"COMPOUND": "CCOc1cc2nc(Cc3nn(CC(=O)N4CCOCC4)c(=O)c4ccccc34)[nH]c2cc1F", "EC50 (nM)": 618}
{"COMPOUND": "CC(C)(O)C1CCCN(C(=O)Cn2nc(Cc3nc4cc(OCC(F)F)c(C#N)cc4[nH]3)c3ccccc3c2=O)C1 (centres unmarked)", "EC50 (nM)": 650}
{"COMPOUND": "N#Cc1cc2[nH]c(Cc3nn(CC(=O)NC4CCCOC4)c(=O)c4ccccc34)nc2cc1OCC(F)F (centres unmarked)", "EC50 (nM)": 94.3}
{"COMPOUND": "CN(C)C1CCN(C(=O)Cn2nc(Cc3nc4cc(C#N)c(OCC(F)F)cc4[nH]3)c3c(c2=O)CCCC3)C1 (centres unmarked)", "EC50 (nM)": 296}
{"COMPOUND": "CCOc1cc2[nH]c(Cc3nn(CC(=O)N4CCOCC4)c(=O)c4ccccc34)nc2cc1C#N", "EC50 (nM)": 112}

# value of EC50, S1PR2 (Homo sapiens), item O=C(O)c1nn(Cc2cn3cc(OCC4CC4)c(Cl)cc3n2)c2ccccc2c1=O = 619

# value of EC50, S1PR2 (Homo sapiens), item N#Cc1cc2nc(Cc3nn(CC(=O)NC[C@H](O)C(F)(F)F)c(=O)c4ccccc34)[nH]c2cc1OCC(F)F = 66.4

# value of EC50, S1PR2 (Homo sapiens), item O=C(Cn1nc(Cc2nc3cc(Cl)c(OC(F)(F)F)cc3[nH]2)c2c(c1=O)CCCC2)N[C@H]1CCC[C@@H]1O = 23

----------
- TESTED_SYSTEM: S1PR2 (Homo sapiens)
- Construct: expressed in transfected cells
- EXPERIMENTAL_PROTOCOL: S1PR2 binding assay (competition with radioactively labeled S1P, SpA)
- CONDITION_SET: membranes from stable cell line over expressing S1PR2, SpA beads; read-out: S1P2 EC50 (nM), S1PR2 binding EC50
READOUT_KIND: EC50 (nM)
Write the answer as a number in nM, unit excluded.

{"COMPOUND": "N#Cc1ccc2c(=O)n(CC(=O)N3CCOCC3)nc(Cc3nc4cc(OCC(F)F)c(Cl)cc4[nH]3)c2c1", "OUTPUT_UNIT": "nM", "EC50": 246}
{"COMPOUND": "O=C(Cn1nc(Cc2nc3cc(Cl)c(OCC4CC4)cc3[nH]2)c2ccccc2c1=O)NC1CCCC1", "OUTPUT_UNIT": "nM", "EC50": 15.6}
{"COMPOUND": "N#CC1(COc2cc3nc(Cc4nn(CC(=O)O)c(=O)c5ccccc45)[nH]c3cc2Cl)CC1", "OUTPUT_UNIT": "nM", "EC50": 263}
{"COMPOUND": "CCOc1cc2[nH]c(Cc3nn(CC(=O)N4CCOCC4)c(=O)c4c3CCCC4)nc2cc1C#N", "OUTPUT_UNIT": "nM", "EC50": 191}
{"COMPOUND": "N#Cc1cc2nc(Cc3nn(C4CC4)c(=O)c4ccccc34)[nH]c2cc1OCC1CC1", "OUTPUT_UNIT": "nM", "EC50": 20.6}

# value of EC50, S1PR2 (Homo sapiens), item O=c1c2ccccc2c(Cc2nc3cc(Cl)c(OC(F)(F)F)cc3[nH]2)nn1C1CC1 = 565

# value of EC50, S1PR2 (Homo sapiens), item CCOc1cc2[nH]c(Cc3nn(CC(=O)O)c(=O)c4c3CCCC4)nc2cc1Cl = 84.8

# value of EC50, S1PR2 (Homo sapiens), item N#Cc1ccc2c(=O)n(CC(=O)O)nc(Cc3nc4cc(Cl)c(OCC(F)F)cc4[nH]3)c2c1 = 306

# value of EC50, S1PR2 (Homo sapiens), item N#Cc1cc2[nH]c(Cc3nn(CC(=O)N4CCC5(C4)CC5(F)F)c(=O)c4ccccc34)nc2cc1OCC(F)F (stereo not drawn) = 117
